RUN_DESCRIPTION: Determination of lipophilicity by RP-18 HPLC retention (log k′g)
Assay type: physicochemical
SETTINGS: RP-18 reversed phase HPLC, gradient elution, ion pair chromatography with triethylammonium cation
From the text: Lipophilicity information is thus often only obtained by fragment analysis and corresponding calculations. An established HPLC method, which is based on retention data on RP-18 reversed phase silica during gradient elution, was used for the determination of lipohilicity. Instead of log P the method yields the descriptor log k′g, ranking analytes according to their lipophilicity on a logarithmic scale as well. […]
Simple rule here: log k′g less than 3 is Satisfied, otherwise Not satisfied.

Use the examples below as a reference point.
- COMPOUND: "Nc1nc2c(nc(Sc3ccccc3N)n2[C@@H]2O[C@@H]3CO[P@@](=O)(S)O[C@H]3[C@H]2O)c(=O)[nH]1 (single isomer, unassigned)"
  LABEL_VALUE: "Satisfied"
- COMPOUND: "O=c1c2nc(Br)n(C3OC4COP(O)(=S)OC4C3O)c2nc2[nH]c(-c3ccsc3)cn12 (stereo not shown)"
  LABEL_VALUE: "Satisfied"
- COMPOUND: "Nc1nc2c(nc(SCC(=O)Nc3ccccc3)n2[C@@H]2O[C@@H]3COP(O)(=S)O[C@H]3[C@H]2O)c(=O)[nH]1 (single isomer, unassigned)"
  LABEL_VALUE: "Satisfied"
- COMPOUND: "Nc1nc2c(ncn2[C@@H]2O[C@@H]3COP(=O)(O)O[C@H]3[C@H]2O)c(=O)[nH]1 [cGMP, guanosine-3′,5′-cyclic monophosphate, reference compound]"
  LABEL_VALUE: "Satisfied"

Q: Please determine if Nc1nc2c(nc(Br)n2[C@@H]2O[C@@H]3COP(O)(=S)O[C@H]3[C@H]2O)c(=O)[nH]1 (stereo partly shown) [B, Rp-8-Br-cGMPS, reference compound] is below 3 in terms of log k′g.
Ans: Satisfied

Q: Please determine if O=c1c2nc(Br)n([C@@H]3O[C@@H]4CO[P@@](=O)(S)O[C@H]4[C@H]3O)c2nc2[nH]c(-c3ccc4ccccc4c3)cn12 (single isomer, unassigned) is below 3 in terms of log k′g.
Ans: Not satisfied

Q: Please determine if Cc1ccc(-c2cn3c(=O)c4nc(Br)n([C@@H]5O[C@@H]6COP(O)(=S)O[C@H]6[C@H]5O)c4nc3[nH]2)cc1 (single isomer, unassigned) is below 3 in terms of log k′g.
Ans: Not satisfied

Q: Please determine if Nc1nc2c(ncn2[C@@H]2O[C@@H]3COP(O)(=S)O[C@H]3[C@H]2O)c(=O)[nH]1 (stereo partly shown) [A, Rp-cGMPS, reference compound] is below 3 in terms of log k′g.
Ans: Satisfied

Q: Please determine if O=c1c2nc(Br)n([C@@H]3O[C@@H]4CO[P@@](O)(=S)O[C@H]4[C@H]3O)c2nc2[nH]c(-c3ccccc3)cn12 [C, Rp-8-Br-PET-cGMPS, reference compound] is below 3 in terms of log k′g.
Ans: Satisfied

Q: Please determine if O=C(CSc1nc2c(=O)n3cc(-c4ccccc4)[nH]c3nc2n1[C@@H]1O[C@@H]2COP(O)(=S)O[C@H]2[C@H]1O)Nc1ccccc1 (single isomer, unassigned) is below 3 in terms of log k′g.
Ans: Not satisfied

---

RUN_DESCRIPTION: Determination of lipophilicity by RP-18 HPLC retention (log k′g)
Type: physicochemical
SETTINGS: RP-18 reversed phase HPLC, gradient elution, ion pair chromatography with triethylammonium cation
Marks after values point to notes of the source that are not given here.
As shown below, each of these compounds has a reported log k′g value.

# count of solved cases: 2
- COMPOUND: "O=C(CSc1nc2c(=O)n3cc(-c4ccccc4)[nH]c3nc2n1[C@@H]1O[C@@H]2COP(O)(=S)O[C@H]2[C@H]1O)NCCOCCOCCOCCOCCOCCOCCOCCOCCNC(=O)CSc1nc2c(=O)n3cc(-c4ccccc4)[nH]c3nc2n1[C@@H]1O[C@@H]2COP(O)(=S)O[C@H]2[C@H]1O (stereo partly drawn) [Compound 2]"
  log k′g: "3.236*"
- COMPOUND: "Nc1nc2c(nc(SCC(=O)NCCOCCOCCOCCOCCOCCOCCOCCOCCNC(=O)CSc3nc4c(=O)[nH]c(N)nc4n3[C@@H]3O[C@@H]4COP(O)(=S)O[C@H]4[C@H]3O)n2[C@@H]2O[C@@H]3COP(O)(=S)O[C@H]3[C@H]2O)c(=O)[nH]1 (stereo partly drawn) [Compound 1]"
  log k′g: "2.039*"

In the following, a different compound is considered.
Q: Identify log k′g associated with the compound O=c1c2nc(Sc3ccc(O)cc3)n([C@@H]3O[C@@H]4COP(O)(=S)O[C@H]4[C@H]3O)c2nc2[nH]c(-c3ccccc3)cn12 (single isomer, unassigned) [Compound 34]
Ans: 3.078

Source listed as patent US11407781B2.
